Reported melting point values are given for each entry in this list.

Study these solved cases before continuing.
> print(dat)
                            chemical.smiles   assay.metric  endpoint.value
1  O=C(NN=Cc1ccc(Cl)cc1)c1ccc(OCc2cn(Cc3ccccc3)nn2)cc1  melting point   211 to 214 °C
2  Cc1ccc(Cn2cc(COc3ccc(C(=O)NN=Cc4ccc(Cl)cc4)cc3)nn2)cc1  melting point   216 to 218 °C
3  COc1ccc(C=NNC(=O)c2ccc(OCc3cn(Cc4ccccc4)nn3)cc2)cc1  melting point   237 to 240 °C

## Input // lookup melting point for "O=C(NN=Cc1ccccc1)c1ccc(OCc2cn(Cc3ccccc3Cl)nn2)cc1"
## Output 203 to 207 °C

## Input // lookup melting point for "Cc1ccc(Cn2cc(COc3ccc(C(=O)NN=Cc4ccccc4)cc3)nn2)cc1"
## Output 154 to 156 °C

## Input // lookup melting point for "O=C(NN=Cc1ccc([N+](=O)[O-])cc1)c1ccc(OCc2cn(Cc3ccccc3Cl)nn2)cc1"
## Output 204 to 206 °C

---

Reported melting point values are given for each entry in this list.

## Input // lookup melting point for "Cc1ccc(Cn2cc(COc3ccc(C(=O)NN=Cc4ccc([N+](=O)[O-])cc4)cc3)nn2)cc1"
## Output 247 to 250 °C

## Input // lookup melting point for "COc1ccc(C=NNC(=O)c2ccc(OCc3cn(Cc4ccccc4Cl)nn3)cc2)cc1"
## Output 222 to 225 °C

## Input // lookup melting point for "O=C(NN=Cc1ccccc1)c1ccc(OCc2cn(Cc3ccc(F)cc3)nn2)cc1"
## Output 160 to 163 °C

## Input // lookup melting point for "O=C(NN=Cc1ccc(Cl)cc1)c1ccc(OCc2cn(Cc3ccccc3Cl)nn2)cc1"
## Output 246 to 248 °C
